Examples of compounds with documented IC50 follow.
Biological target: LK35.2-hPD-L1 cells / PE-labeled PD-1-Ig (Homo sapiens)
Construct: expressed in transfected cells; host or cells: LK35.2 mouse B cell line
Sequence (Q9NZQ7 19-290): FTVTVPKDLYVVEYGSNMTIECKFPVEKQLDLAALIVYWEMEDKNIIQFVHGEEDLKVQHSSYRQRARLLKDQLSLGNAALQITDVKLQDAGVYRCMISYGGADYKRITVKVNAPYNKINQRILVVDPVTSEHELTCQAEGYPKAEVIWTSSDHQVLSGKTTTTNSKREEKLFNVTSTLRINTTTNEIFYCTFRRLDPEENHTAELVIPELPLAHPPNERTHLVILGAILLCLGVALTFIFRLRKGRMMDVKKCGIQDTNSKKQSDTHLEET
Assay: LK35.2-hPD-L1 cell binding high-content screening assay
Type: cell-based
Settings: cell binding assay, cell line not given; cluster symbol; read-out: CBA IC50 cluster
Method: LK35.2-hPD-L1 Cell Binding High-Content Screening Assay. Phycoerythrin (PE) was covalently linked to the Ig epitope tag of human PD-1-Ig and fluorescently-labeled PD-1-Ig was used for binding studies with a mouse B cell line (LK35.2) stably over-expressing human PD-L1 (LK35.2-hPD-L1). Briefly, 3×10^3 LK35.2-hPD-L1 cells were seeded into 384 well plates in 20 ul of RPMI supplemented with 10% fetal calf serum and cultured overnight. […]
Positions of bridges follow the written chain, without caps; N, C: chain ends. Non-standard residues stand in square brackets, D forms with d. Residues, ends and D or L forms follow the SMILES beside them. Phe(2-OMe) = COc1ccccc1C[C@H](N)C(=O)O; Hyp = O=C(O)[C@@H]1C[C@@H](O)CN1; NMeF = CN[C@@H](Cc1ccccc1)C(=O)O; NMeNle = CCCC[C@H](NC)C(=O)O; NMeA = CN[C@@H](C)C(=O)O; dAze = O=C(O)[C@H]1CCN1; Sar = CNCC(=O)O

{"compound": "CCCC[C@H]1C(=O)N2CC[C@@H]2C(=O)N[C@@H](CC(=O)O)C(=O)N[C@@H](C(C)C)C(=O)N(C)[C@@H](Cc2ccccc2)C(=O)N[C@@H](Cc2ccc(O)cc2)C(=O)N(C)CC(=O)N[C@@H](Cc2c[nH]c3ccccc23)C(=O)N[C@@H](Cc2ccc(O)cc2)C(=O)N[C@@H](CC(C)C)C(=O)N[C@H](C(=O)NCC(N)=O)CSCC(=O)N[C@@H](Cc2ccccc2)C(=O)N(C)[C@@H](Cc2ccccc2)C(=O)N1C [Example 3582] ({CH2CO}-F[NMeF][NMeNle][dAze]DV[NMeF]Y[Sar]WYLCG-NH2; thioether N-13)", "IC50": "4.78 to 72.9 nM"}
{"compound": "CCCC[C@H]1C(=O)N(C)[C@@H](CCCC)C(=O)N[C@@H](CCCNC(=N)N)C(=O)N[C@H](C(=O)NCC(N)=O)CSCC(=O)N[C@@H](Cc2ccccc2OC)C(=O)N(C)[C@@H](C)C(=O)N[C@@H](CC(N)=O)C(=O)N2CCC[C@H]2C(=O)N[C@@H](Cc2cnc[nH]2)C(=O)N[C@@H](CC(C)C)C(=O)N2CCC[C@H]2C(=O)N[C@@H](Cc2c[nH]c3ccccc23)C(=O)N[C@@H](CO)C(=O)N[C@@H](Cc2c[nH]c3ccccc23)C(=O)N1C [Example 7017] ({CH2CO}-[Phe(2-OMe)][NMeA]NPHLPWSW[NMeNle][NMeNle]RCG-NH2; thioether N-14)", "IC50": "4.78 to 72.9 nM"}
{"compound": "CCCC[C@H]1C(=O)N(C)[C@@H](CCCC)C(=O)N[C@@H](CO)C(=O)N[C@H](C(=O)NCC(N)=O)CSCC(=O)N[C@@H](Cc2ccc(O)cc2)C(=O)N(C)[C@@H](C)C(=O)N[C@@H](CC(N)=O)C(=O)N2CCC[C@H]2C(=O)N[C@@H](CO)C(=O)N[C@@H](CCC(N)=O)C(=O)N2C[C@H](O)C[C@H]2C(=O)N[C@@H](Cc2c[nH]c3ccccc23)C(=O)N[C@@H](CO)C(=O)N[C@@H](Cc2c[nH]c3ccccc23)C(=O)N1C [Example 5128] ({CH2CO}-Y[NMeA]NPSQ[Hyp]WSW[NMeNle][NMeNle]SCG-NH2; thioether N-14)", "IC50": "0.158 to 4.71 nM"}
{"compound": "CCCC[C@H]1C(=O)N(C)[C@@H](CCCC)C(=O)N[C@@H](CCCNC(=N)N)C(=O)NC(C(=O)NCC(N)=O)CSCC(=O)N[C@@H](Cc2ccc(O)cc2)C(=O)N(C)[C@@H](CO)C(=O)N[C@@H](CC(N)=O)C(=O)N2CCC[C@H]2C(=O)N[C@@H](Cc2cnc[nH]2)C(=O)N[C@@H](CC(C)C)C(=O)N2C[C@H](O)C[C@H]2C(=O)N[C@@H](Cc2c[nH]c3ccccc23)C(=O)N[C@@H](CO)C(=O)N[C@@H](Cc2c[nH]c3ccccc23)C(=O)N1C (stereo partly shown) [Example 9036]", "IC50": "0.158 to 4.71 nM"}
